meta.source: patent US11254668B2

# assayTarget: TYK2 (Homo sapiens (Human))
# Sequence (P29597 897-1176): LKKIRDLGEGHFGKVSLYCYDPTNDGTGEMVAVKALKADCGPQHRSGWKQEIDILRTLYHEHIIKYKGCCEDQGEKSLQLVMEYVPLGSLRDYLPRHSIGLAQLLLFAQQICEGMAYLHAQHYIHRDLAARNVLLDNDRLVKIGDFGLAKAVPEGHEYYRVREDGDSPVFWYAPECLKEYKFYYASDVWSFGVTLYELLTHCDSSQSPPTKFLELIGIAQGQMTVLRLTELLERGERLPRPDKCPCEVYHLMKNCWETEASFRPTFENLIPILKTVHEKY
# assayMethodText: JAK Caliper Enzyme Assay at 1 mM ATP, TYK2
# Type: biochemical
IC50 reference
Entry rule: numbers only, all in µM.

> print(dat)
                                   compound  numericresult
1  Cn1cc(-c2cc(-c3cnn([C@]4(CC#N)C[C@@H](C#N)C4)n3)c3cccnc3c2)c(N)n1 [Example 333]          0.031
2  Cc1cc(-c2nc(-c3cn[nH]c3)cc3ncccc23)nn1[C@]1(CC#N)C[C@@H](C#N)C1 [Example 273]          0.049
3  CO[C@H]1C[C@@](CC#N)(n2cc(-c3nc(-c4cnn(CCO)c4)cc4ncccc34)cn2)C1 [Example 8]           0.13

Q: Looking for the measured IC50 of N#CC[C@]1(n2ncc(-c3cc(-c4nc(CO)cs4)cc4ncccc34)n2)C[C@H](C#N)C1 [Example 341] , can you help?
Ans: 0.057

====

# Test system: IL-12 signaling (TYK2 and JAK2), STAT4 phosphorylation
# assayMethodText: Human Whole Blood IL-12 Induced STAT4 Phosphorylation Assay
# Assay type: cell-based
# particulars: Lymphocyte, IL-12 5 ng/mL, pSTAT4 in lymphocytes by flow cytometry
measuredProperty: pIC50
Please treat pIC50 as minus the base-10 logarithm of the molar concentration.

Q: Value lookup for pIC50; key = "N#CCN1CC(CC#N)(n2ccc(-c3nc(-c4cnn(C5COC5)c4)cc4ncccc34)n2)C1"
Ans: 7.36

====

# assayTarget: JAK3 (Homo sapiens (Human), UniProt P52333)
# Sequence (P52333 822-1111): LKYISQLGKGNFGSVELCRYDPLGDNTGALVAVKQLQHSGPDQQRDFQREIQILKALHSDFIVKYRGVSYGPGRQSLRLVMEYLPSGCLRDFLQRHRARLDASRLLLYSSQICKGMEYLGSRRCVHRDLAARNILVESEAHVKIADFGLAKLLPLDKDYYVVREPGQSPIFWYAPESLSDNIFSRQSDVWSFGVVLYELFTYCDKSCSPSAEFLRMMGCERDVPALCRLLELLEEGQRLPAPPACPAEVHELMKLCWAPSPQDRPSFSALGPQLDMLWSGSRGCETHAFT
# assayMethodText: JAK Caliper Enzyme Assay at 1 mM ATP, JAK3
# Assay type: biochemical
pIC50: −log10 of the molar value.
// reported pIC50 per item

> print(dat)
                            smilesstructure  measuredproperty  result
1  N#CC[C@]1(n2ccc(-c3nc(-c4ccnc(C(N)=O)c4)cc4ncccc34)n2)C[C@H](C#N)C1             pIC50  < 5.00

Q: Can you share its pIC50? I mean this compound: "N#CCC1(n2ccc(-c3nc(-c4ccnc(N)c4)cc4ncccc34)n2)CN(CC(F)(F)F)C1"
Ans: < 5.00

Q: Entry "N#CC[C@]1(n2ncc(-c3cc(-c4ccc(F)cn4)cc4ncccc34)n2)C[C@@H](C#N)C1" : reported pIC50 = ?
Ans: < 5.00

====

# assayTarget: UniProt:P23458
# Sequence (P23458 875-1153): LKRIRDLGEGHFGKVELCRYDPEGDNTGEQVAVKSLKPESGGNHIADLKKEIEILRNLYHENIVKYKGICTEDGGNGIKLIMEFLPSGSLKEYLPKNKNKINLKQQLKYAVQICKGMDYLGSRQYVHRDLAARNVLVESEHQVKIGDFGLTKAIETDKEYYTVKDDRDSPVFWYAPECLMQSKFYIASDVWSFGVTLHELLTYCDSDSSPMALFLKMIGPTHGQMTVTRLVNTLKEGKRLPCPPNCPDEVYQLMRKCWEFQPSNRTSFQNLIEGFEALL
# assayMethodText: JAK Caliper Enzyme Assay at 1 mM ATP, JAK1
# Format: biochemical
# particulars: JAK Caliper enzyme assay
# Method: Compounds of the invention were evaluated by in vitro methods to determine their respective ability to inhibit the JAK kinases (TYK2, JAK1, JAK2, JAK3). The human JAK inhibitory activity was determined by using a microfluidic assay to monitor phosphorylation of a synthetic peptide by the recombinant human kinase domain of each of the four members of the JAK family, JAK1, JAK2, JAK3 and TYK2. […]
measuredProperty: IC50 (µM)
# output: bare number, implied unit µM

> print(dat)
                                    compound  measuredproperty  unitlabel  numericresult
 1  CCn1cc(-c2cc(-c3cnn(C4(CC#N)CN(S(C)(=O)=O)C4)n3)c3cccnc3c2)ccc1=O [Example 413]              IC50         µM           4.02
 2  Cc1nc2ccc(-c3cc(-c4cnn([C@]5(CC#N)C[C@H](C#N)C5)n4)c4cccnc4c3)nc2[nH]1 [Example 424]              IC50         µM          0.728
 3  Cc1nc(-c2cc(-c3cnn([C@]4(CC#N)C[C@H](C#N)C4)n3)c3cccnc3c2)ccc1CCO [Example 378]              IC50         µM          0.575
 4  N#CC[C@]1(n2ncc(-c3cc(-c4ccc(N)nn4)cc4ncccc34)n2)C[C@@H](C#N)C1 [Example 400]              IC50         µM          0.748
 5  N#CC[C@]1(n2ncc(-c3cc(-c4cc(C(N)=O)c(F)cn4)cc4ncccc34)n2)C[C@H](C#N)C1 [Example 385]              IC50         µM           6.27
 6  N#CCC1(n2ncc(-c3cc(-c4ccc(C(=O)O)cc4)cc4ncccc34)n2)CC(C#N)C1 (stereo not drawn) [Example 436]              IC50         µM           1.49
 7  N#CC[C@]1(n2ncc(-c3cc(-c4ccc(OCCN)cc4)cc4ncccc34)n2)C[C@H](C#N)C1 [Example 440]              IC50         µM           6.43
 8  N#CC[C@]1(n2ncc(-c3cc(-c4cnn5cccnc45)cc4ncccc34)n2)C[C@@H](C#N)C1 [Example 419]              IC50         µM          0.739
 9  N#CC[C@]1(n2ncc(-c3cc(-c4cnc(N)cn4)cc4ncccc34)n2)C[C@@H](C#N)C1 [Example 398]              IC50         µM            1.9
10  CS(=O)(=O)Nc1cccc(-c2cc(-c3cnn(C4(CC#N)CC(C#N)C4)n3)c3cccnc3c2)n1 (stereo not drawn) [Example 372]              IC50         µM            0.6

Q: Reported IC50, compound Cc1nc(-c2cc(-c3cnn([C@]4(CC#N)C[C@H](C#N)C4)n3)c3cccnc3c2)ccc1O [Example 381] : ____
Ans: 0.432

Q: Any idea what IC50 was measured for N#CC[C@]1(n2ncc(-c3cc(-c4cnc5ncccn45)cc4ncccc34)n2)C[C@@H](C#N)C1 [Example 417] ?
Ans: 7.47

Q: Need IC50, item CS(=O)(=O)N1CC(CC#N)(n2ncc(-c3cc(-c4cccc(O)c4)cc4ncccc34)n2)C1 [Example 438]
Ans: 5.63

Q: Item under review: Cc1nc(-c2cc(-c3cnn([C@]4(CC#N)C[C@@H](C#N)C4)n3)c3cccnc3c2)ccc1O [Example 382] . Reported IC50?
Ans: 3.06

Q: Any idea what IC50 was measured for Cn1cc(-c2cc3nccnc3c(-c3cnn(C4(CC#N)CN(CC(F)(F)F)C4)c3)n2)cn1 [Example 479] ?
Ans: 0.169

Q: What value of IC50 has been recorded for this entry: Cn1cc(-c2cc3nccnc3c(-c3cnn(C4(CC#N)CN(CC#N)C4)c3)n2)cn1 [Example 480]
Ans: 0.145

Q: Data request, read-out IC50, for N#CC[C@]1(n2ncc(-c3cc(-c4cccc(C(N)=O)c4)cc4ncccc34)n2)C[C@@H](C#N)C1 [Example 432]
Ans: 3.9

Q: Any idea what IC50 was measured for N#CC[C@]1(n2ncc(-c3cc(-c4cnccn4)cc4ncccc34)n2)C[C@@H](C#N)C1 [Example 392] ?
Ans: 7.11

Q: Reported IC50, compound N#CC[C@]1(n2ncc(-c3cc(-c4ccc(N)nn4)cc4ncccc34)n2)C[C@H](C#N)C1 [Example 401] : ____
Ans: 3.7

Q: Which IC50 is reported for this compound? CS(=O)(=O)N1CC(CC#N)(n2ncc(-c3cc(-c4ccc(F)c(CO)c4)cc4ncccc34)n2)C1 [Example 446]
Ans: 4.73

Q: # IC50 lookup, item N#CC[C@]1(n2cc(-c3cc(-c4ccc(N)nc4)cc4nccn34)cn2)C[C@@H](C#N)C1 [Example 469]
Ans: 2.39

====

We begin with a simple list: items and their reported IC50.
# assayTarget: JAK3 (Homo sapiens (Human), UniProt P52333)
# assayMethodText: JAK Caliper Enzyme Assay at 1 mM ATP, JAK3
# Format: biochemical
# Procedure: Compounds of the invention were evaluated by in vitro methods to determine their respective ability to inhibit the JAK kinases (TYK2, JAK1, JAK2, JAK3). The human JAK inhibitory activity was determined by using a microfluidic assay to monitor phosphorylation of a synthetic peptide by the recombinant human kinase domain of each of the four members of the JAK family, JAK1, JAK2, JAK3 and TYK2. […]

> print(dat)
                                   compound                               assaytarget   result
1  CO[C@H]1C[C@@](CC#N)(n2ccc(-c3nc(-c4cc(N)[nH]n4)cc4ncccc34)n2)C1  JAK3 (Homo sapiens (Human), UniProt P52333)  > 10 µM
2  Cn1cc(-c2cc3ncccc3c(-c3ccn([C@]4(CC#N)C[C@@H](C#N)C4)n3)n2)c(N)n1  JAK3 (Homo sapiens (Human), UniProt P52333)  3.72 µM
3  COc1ccc(-c2cc3ncccc3c(-c3ccn(C4(CC#N)CN(CC(F)(F)F)C4)n3)n2)cn1  JAK3 (Homo sapiens (Human), UniProt P52333)  > 10 µM
4  CS(=O)(=O)N1CC(CC#N)(n2ccc(-c3nc(-c4cnn(C(F)(F)F)c4)cc4ncccc34)n2)C1  JAK3 (Homo sapiens (Human), UniProt P52333)  > 10 µM
5  Cc1ccn(-c2cc3ncccc3c(-c3ccn(C4(CC#N)CN(CC(F)(F)F)C4)n3)n2)n1  JAK3 (Homo sapiens (Human), UniProt P52333)  > 10 µM
6  Cc1cc(-c2nc(-c3cn[nH]c3)cc3ncccc23)nn1C1(CC#N)CN(S(C)(=O)=O)C1  JAK3 (Homo sapiens (Human), UniProt P52333)  > 10 µM

Q: I'm curious: which IC50 was measured for "N#CC[C@]1(n2ncc(-c3cc(-c4ccc(N)cn4)cc4ncccc34)n2)C[C@@H](C#N)C1" tested on JAK3 (Homo sapiens (Human), UniProt P52333)?
Ans: 6.7 µM
